The origin of these recorded values is the supplement of paper PMC7393113.

Recorded mitochondrial superoxide values for a group of molecules are listed next.
Tested on: iBMDM (immortalised mouse bone-marrow-derived macrophages), LPS-stimulated
ASSAY: mitochondrial superoxide (MitoSOX fluorescence) fold increase over unstimulated control; higher = more LPS-induced mitochondrial ROS (less inhibition)
EXPERIMENTAL PARAMETERS: inhibitor concentration: 500 nM; LPS: 100 ng/ml; time after LPS: 1 h
QUANTITY KIND: mitochondrial superoxide

* CN(C)Cc1cccc(N=C(c2ccccc2)c2c(O)[nH]c3cc(C(N)=O)ccc23)c1 | 1.15
* Cc1ccc(C(=O)Nc2ccc(CN3CCN(C)CC3)c(C(F)(F)F)c2)cc1C#Cc1cnc2[nH]ncc2c1 | 1.42
* CN(C)c1ccc(-c2nc3ncc(Cl)c(N4CCN(CC(=O)Nc5nccs5)CC4)c3[nH]2)cc1 | 1.21
* Cc1c(NC(=O)OC[C@@H]2COCCN2)cn2ncnc(Nc3ccc4c(cnn4Cc4cccc(F)c4)c3)c12 | 1.57
* Cn1cc(C2=C(c3ccc(Cl)cc3Cl)C(=O)NC2=O)c2ccccc21 | 1.46
* O=C(O)[C@]1(Cc2cccc(Nc3nccs3)n2)CC[C@@H](Oc2cccc(Cl)c2F)CC1 | 1.22
* C=CC(=O)Nc1cccc(Oc2nc(Nc3ccc(N4CCN(C)CC4)cc3)ncc2Cl)c1 | 1.54
* CNCc1ccc(-c2cc(-c3nc(-c4ccc(S(=O)(=O)C(C)C)cc4)cnc3N)on2)cc1 | 1.12
* Cc1cc(C)nc(NS(=O)(=O)c2ccc(NC(=S)NC(=O)COc3ccc(Br)cc3Cl)cc2)n1 | 1.42
* CN(C[C@@H]1COCCO1)S(=O)(=O)Nc1ccc2ccc3ncc(-c4cnn(C)c4)cc3c(=O)c2c1 | 1.26
* C=CCc1ccc(O)c(-c2ccc(O)c(CC=C)c2)c1 [Honokiol] | 1.24
* CCN1CCN(Cc2ccc(-c3cc4c(N[C@H](C)c5ccccc5)ncnc4[nH]3)cc2)CC1 | 1.08
* CC(C)(C)NS(=O)(=O)c1cncc(-c2cc(F)c3nc(N)nn3c2)c1 | 1.09
* CC1(COc2ccc3c(c2)ncn3-c2ccc3cccc(N4CCC(N)CC4)c3n2)COC1 | 1.04
* Cc1c(C(=O)N2CCOc3ccc(-c4ccc(N)nc4)cc3C2)ccc(S(C)(=O)=O)c1F | 1.11
* Cc1cc(CN2CCN(c3c(Br)cnc4nc(-c5ccc(N6CCN(C)CC6)cc5)[nH]c34)CC2)no1 | 1.27
* Clc1ccc(Nc2nnc(Cc3ccncc3)c3ccccc23)cc1 [Vatalanib (PTK787) 2HCl] | 1.42
* Cc1nc(NC(=O)N2CCC[C@H]2C(N)=O)sc1-c1ccnc(C(C)(C)C(F)(F)F)c1 | 1.3

###

Recorded mitochondrial superoxide values for a group of molecules are listed next.
Tested on: iBMDM (immortalised mouse bone-marrow-derived macrophages), LPS-stimulated
ASSAY: mitochondrial superoxide (MitoSOX fluorescence) fold increase over unstimulated control; higher = more LPS-induced mitochondrial ROS (less inhibition)
EXPERIMENTAL PARAMETERS: inhibitor concentration: 500 nM; LPS: 100 ng/ml; time after LPS: 2 h
QUANTITY KIND: mitochondrial superoxide

* Cc1ccccc1-n1c(Cn2nc(-c3cccc(O)c3)c3c(N)ncnc32)nc2cccc(C)c2c1=O | 1.34
* CC(C)CC(=O)Nc1n[nH]c2c1CN(C(=O)C1CCN(C)CC1)C2(C)C | 1.13
* C=CC(=O)Nc1cccc(Oc2nc(Nc3ccc(N4CCN(C)CC4)cc3OC)ncc2Cl)c1 | 1.53
* COc1cc2nccc(Oc3ccc(NC(=O)NC4CC4)c(Cl)c3)c2cc1C(N)=O [Lenvatinib (E7080)] | 1.71
* Cc1cnc(NC(=O)Nc2cc(Br)c(C)cc2OC[C@@H]2CNCCO2)cn1 | 1.26
